# PROCEDURE_TEXT: Enthalpy of sulfonamide protonation by ITC
# STATED_CONDITIONS: titration with HNO3 after 1.5 equivalent NaOH, 37°C
ENDPOINT_LABEL: protonation enthalpy of the sulfonamide group (kcal/mol)

COMPOUND: NS(=O)(=O)c1ccc(C(=O)CSc2ncccn2)cc1 [Compound 3b]
UNIT_OF_MEASURE: kcal/mol
REPORTED_VALUE: -7.1
//
COMPOUND: NS(=O)(=O)c1ccc(C(=O)CSc2ncccn2)cc1Cl [Compound 4b]
UNIT_OF_MEASURE: kcal/mol
REPORTED_VALUE: -5.8
//
COMPOUND: NS(=O)(=O)c1cc(C(=O)CSc2ncccn2)ccc1Cl [Compound 1b]
UNIT_OF_MEASURE: kcal/mol
REPORTED_VALUE: -5.8
//
COMPOUND: NS(=O)(=O)c1cccc(C(=O)CSc2ncccn2)c1 [Compound 2b]
UNIT_OF_MEASURE: kcal/mol
REPORTED_VALUE: -7.1
